Target: 5-HT2A receptors (Rattus norvegicus, UniProt P14842)
Sequence (P14842 whole entry): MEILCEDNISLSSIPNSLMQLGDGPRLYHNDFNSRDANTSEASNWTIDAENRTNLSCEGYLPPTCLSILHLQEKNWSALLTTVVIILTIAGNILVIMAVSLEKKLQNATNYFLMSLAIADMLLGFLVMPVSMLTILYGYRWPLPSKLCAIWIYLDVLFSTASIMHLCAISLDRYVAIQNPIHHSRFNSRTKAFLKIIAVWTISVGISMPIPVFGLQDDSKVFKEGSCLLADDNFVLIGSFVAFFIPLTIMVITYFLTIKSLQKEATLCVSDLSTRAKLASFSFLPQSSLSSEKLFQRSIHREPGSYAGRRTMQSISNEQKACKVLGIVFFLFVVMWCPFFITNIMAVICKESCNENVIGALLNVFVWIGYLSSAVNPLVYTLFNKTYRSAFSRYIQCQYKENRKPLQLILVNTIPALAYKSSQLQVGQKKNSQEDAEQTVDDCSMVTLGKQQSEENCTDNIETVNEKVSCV
Assay: in-vitro affinity to 5-HT2A receptors, displacement of [3H]ketanserine (Example A1)
Type: binding
Conditions: read-out: HT2A IC50
Below, each of the compounds is paired with its reported log10 IC50 value.
Kindly note that the scale is log10 and the underlying IC50 is in nM.

A selection of reference data follows.
• CC(=O)Nc1cccc(-c2ccc(-n3ncc(CN4CCN(C)CC4)c3-c3ccccc3F)cc2)c1 = 2.11
• NCc1cnn(-c2ccc(-c3ccccc3)cc2)c1-c1ccccc1 = 1.32
• Cc1nn(-c2ccccc2)c(C)c1CN1CCN(C(=O)C(CCC(=O)O)N2C(=O)c3ccccc3C2=O)CC1 (stereo not drawn) = 2.34

Recorded log10 IC50 for Cc1ccc(-c2c(CN3CCN(C)CC3)cnn2-c2ccc(-c3ccc(F)cc3)cc2)cc1 with 5-HT2A receptors (Rattus norvegicus, UniProt P14842), please?
2.15

* * *

Below, each of the compounds is paired with its reported pIC50 value.
Biological target: 5 HT2C receptor (Homo sapiens)
Sequence (P28335 33-458): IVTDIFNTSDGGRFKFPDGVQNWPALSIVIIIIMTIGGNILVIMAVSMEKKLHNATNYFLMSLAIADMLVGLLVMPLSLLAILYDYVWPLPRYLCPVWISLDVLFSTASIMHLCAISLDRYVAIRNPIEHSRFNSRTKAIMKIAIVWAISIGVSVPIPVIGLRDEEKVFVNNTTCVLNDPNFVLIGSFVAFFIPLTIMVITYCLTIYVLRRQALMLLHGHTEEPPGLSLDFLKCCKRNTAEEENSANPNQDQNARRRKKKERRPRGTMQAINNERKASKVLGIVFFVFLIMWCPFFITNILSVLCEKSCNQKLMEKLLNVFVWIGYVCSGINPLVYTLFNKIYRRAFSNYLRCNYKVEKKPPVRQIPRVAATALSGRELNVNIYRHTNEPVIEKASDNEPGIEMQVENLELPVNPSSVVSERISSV
The read-out pIC50 is expressed as -log10 of concentration in moles per litre.

A selection of reference data follows.
• CN1CCN(Cc2cnn(-c3ccc(-n4cccc4)cc3)c2-c2ccccc2F)CC1 = 6.68
• CN1CCN(Cc2cnn(-c3ccc(-c4ccccc4)cc3)c2-c2ccccn2)CC1 = 6.00

Sample Fc1ccc(CCN2CCN(Cc3cnn(-c4ccccn4)c3-c3ccccc3F)CC2)c(F)c1 — what was its pIC50?
6.00

Sample CN(C)CCc1cnn(-c2ccc(-c3ccc(F)cc3)cc2)c1-c1ccccc1F — what was its pIC50?
7.56

Sample Fc1ccc(-c2ccc(-n3ncc(CN4CCN(C5CCCC5)CC4)c3-c3ccccc3Cl)cc2)cc1 — what was its pIC50?
6.00

Sample CN1CCN(Cc2cnn(-c3ccc(-c4ccc(F)cc4)cc3)c2-c2ccccc2)CC1 — what was its pIC50?
6.51

Sample O=C(c1ccc(F)cc1)C1CCN(Cc2cnn(-c3ccc(-c4ccc(F)cc4)cc3)c2-c2ccccc2Cl)CC1 — what was its pIC50?
7.40

Sample CN1CCN(Cc2cnn(-c3ccc(-c4cc(F)ccc4F)cc3)c2-c2ccc(F)cc2)CC1 — what was its pIC50?
6.00

Sample CN1CCN(Cc2cnn(-c3ccc(-c4cc(F)ccc4F)cc3)c2-c2ccccc2F)CC1 — what was its pIC50?
6.33

* * *

Target: 5-HT2A receptors (Rattus norvegicus, UniProt P14842)
Test: in-vitro affinity to 5-HT2A receptors, displacement of [3H]ketanserine (Example A1)
Format: binding
Conditions: target not given; description names affinity to 5-HT2A receptors; read-out: IC50
Below, each of the compounds is paired with its reported IC50 value.
# unit: nM | format: bare number

A selection of reference data follows.
* CN1CCN(Cc2cnn(-c3ccc(C(F)(F)F)cc3)c2-c2ccccc2F)CC1 | 160
* COc1ccccc1-c1c(CN2CCN(C)CC2)cnn1-c1ccc(-c2cc(F)ccc2F)cc1 | 77
* CN(C)CCN(C)Cc1cnn(-c2ccc(-c3ccc(F)cc3)nc2)c1-c1ccccc1F | 140

Sample CC(C)c1ccc(-n2ncc(CN3CCN(C)CC3)c2-c2ccccc2F)cc1 — what was its IC50?
120

All figures here come from patent US20060264419A1.
